molecular target: RSV F on RSV-A2 virus (Respiratory syncytial virus, RSV-A2, UniProt P03420 26-574); experiment: cell-based or functional assay
RECORDED_ENDPOINT: Neutralization IC50 (RSV subtype A)

Some entries whose results are on file:
- ADI-41605 (antibody, V domains shown, also called Ab 879; Antibody Number 879) VH: QVQLVESGPGLVKPSQTLSLTCSVSGGSISSDDHYWSWIRQHPGKGLEWIGYIYYSGYTNYNPSLKSRVTISVDTSKNQFSLRLSSVTAADTAVYYCARETDITIFGVVPVGYFDYWGQGTLVTVSS VL: DIQVTQSPDSLAVSLGERATINCKSSQSILSSTNNKNFLAWYQQKPGQPPKLLLHWASTREFGVPDRFSGSGSGTEFTLTISSLQAEDVAVYYCQQYYTTPYTFGQGTKVEIK: > 25 µg/mL
- ADI-41737 (antibody, V domains shown, also called Ab 897; Antibody Number 897) VH: QVQLQESGPGLVKPSQTLSLTCTVSGGSMISGDFYWSWIRQPPGKGLEWIGYIYYSGTTYYSPSLKSRVSMSIDTSKSQFSLKLSSVTAADTAVYYCARKYSYGEKAYHYWGQGTLVTVSS VL: EIVLTQSPGTLSLSPGERATLSCRASQTVGNNYLAWYQQKPGQAPRLLIYGASSRATGIPDRFSGSGSGTDFTLTISRLESEDFAVYHCHQYGTSPQTFGQGTKVEIK: > 25 µg/mL

Challenge: Tell me measured Neutralization IC50 (RSV subtype A) for ADI-41660 (antibody, V domains shown) VH: EVQLVQSGAEVKKPGSSVKVSCKASGGTFSRNAISWVRQAPGQGLEWMGGIIPIFGAANYPQKFQGRVTITADKSTSTAYMELSSLRSEDTALYYCARTMGEMTTTPVSIYYYGMDVWGQGTTVTVSS VL: QSVLTQPPSVSAAPGQKVTISCSGSSSNIGINYVSWYQQLPGTAPKLLIYDNNKRPSGIPDRFSGSKSGTSATLGITGLQTGDEADYYCGTWDSSLSAGYVFGSGTKLTVL please.
Response given: > 25 µg/mL

Cited source for all entries: patent US20260258115A1
